# target: SALL4 ZFC4 WT (HT-SELEX) (Mus musculus, UniProt Q8BX22 870-940)
# Sequence: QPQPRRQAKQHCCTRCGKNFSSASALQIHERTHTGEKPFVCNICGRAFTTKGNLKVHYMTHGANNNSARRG
# method-notes: HT-SELEX; high values mean tight binding
# condition-description: protein: recombinant; vector His6-GST; dsDNA, one strand shown
measure: binding signal

// worked examples, binding signal included
{"residues": "CGTAAA", "target": "SALL4 ZFC4 WT (HT-SELEX) (Mus musculus, UniProt Q8BX22 870-940)", "measure": "binding signal", "value-observed": "1 fold-change vs cycle 0"}
{"residues": "TGCAAA", "target": "SALL4 ZFC4 WT (HT-SELEX) (Mus musculus, UniProt Q8BX22 870-940)", "measure": "binding signal", "value-observed": "1 fold-change vs cycle 0"}
{"residues": "ACTGCT", "target": "SALL4 ZFC4 WT (HT-SELEX) (Mus musculus, UniProt Q8BX22 870-940)", "measure": "binding signal", "value-observed": "0.712 fold-change vs cycle 0"}

For the next question, use this sequence.
IN: I'd like to know its binding signal. The sequence in question is CTTCGA
OUT: 0.707 fold-change vs cycle 0

====

# target: SALL4 ZFC4 R900W (HT-SELEX) (Mus musculus, UniProt Q8BX22 870-940, R900W)
# Sequence: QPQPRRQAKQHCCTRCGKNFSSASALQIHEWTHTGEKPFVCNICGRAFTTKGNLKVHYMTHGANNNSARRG
# method-notes: HT-SELEX; high values mean tight binding
# condition-description: protein: recombinant; vector His6-GST; dsDNA, one strand shown
measure: binding signal (fold-change vs cycle 0)
Write the number in fold-change vs cycle 0 without appending the unit.

{"residues": "AGCGAC", "target": "SALL4 ZFC4 R900W (HT-SELEX) (Mus musculus, UniProt Q8BX22 870-940, R900W)", "units-symbol": "fold-change vs cycle 0", "value-observed": 0.253}

IN: I'd like to know its binding signal. The sequence in question is CTGAAC
OUT: 0.995

IN: I'd like to know its binding signal. The sequence in question is CAACAC
OUT: 0.8

IN: I'd like to know its binding signal. The sequence in question is GATGGC
OUT: 0.36

====

# target: SALL4 ZFC4 R900W (HT-SELEX) (Mus musculus, UniProt Q8BX22 870-940, R900W)
# Sequence: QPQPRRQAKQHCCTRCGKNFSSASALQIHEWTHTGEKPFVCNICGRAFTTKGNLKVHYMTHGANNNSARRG
# method-notes: HT-SELEX; high values mean tight binding
# condition-description: protein: recombinant; vector His6-GST; dsDNA, one strand shown
I'd appreciate it if you marked entries fulfilled when binding signal is lower than 0.8 fold-change vs cycle 0 and not fulfilled when it is not.

{"residues": "AGGAAG", "label": "not fulfilled"}

IN: Strictly below 0.8 fold-change vs cycle 0: is that where binding signal of AGAGTA sits?
OUT: not fulfilled

IN: Strictly below 0.8 fold-change vs cycle 0: is that where binding signal of CCTGGC sits?
OUT: fulfilled

IN: Strictly below 0.8 fold-change vs cycle 0: is that where binding signal of ACTAAT sits?
OUT: not fulfilled

====

# target: SALL4 ZFC4 G921D (HT-SELEX) (Mus musculus, UniProt Q8BX22 870-940, G921D)
# Sequence: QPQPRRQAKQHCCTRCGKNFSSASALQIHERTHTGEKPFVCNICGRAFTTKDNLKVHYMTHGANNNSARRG
# method-notes: HT-SELEX; high values mean tight binding
# condition-description: protein: recombinant; vector His6-GST; dsDNA, one strand shown
// log10(binding signal) lookup, one value per entry
Record value = log10 of binding signal given in fold-change vs cycle 0.

// worked examples, log10(binding signal) included
{"residues": "ATGCGC", "log10(binding signal)": -0.55}
{"residues": "ATCGTA", "log10(binding signal)": 0.11}
{"residues": "AACGGG", "log10(binding signal)": -0.27}
{"residues": "AGACAT", "log10(binding signal)": 0.14}
{"residues": "AGTCGC", "log10(binding signal)": -0.41}
{"residues": "ACTTCG", "log10(binding signal)": -0.07}
{"residues": "ACCGAT", "log10(binding signal)": -0.06}
{"residues": "GAAGGC", "log10(binding signal)": -0.28}
{"residues": "GGTGGA", "log10(binding signal)": -0.21}
{"residues": "GATCAC", "log10(binding signal)": 0.05}

IN: I'd like to know its log10(binding signal). The sequence in question is CTTCCC
OUT: -0.18

IN: I'd like to know its log10(binding signal). The sequence in question is AGTCGA
OUT: -0.09

IN: I'd like to know its log10(binding signal). The sequence in question is AATGAG
OUT: 0.15

====

# target: SALL4 ZFC4 G921D (HT-SELEX) (Mus musculus, UniProt Q8BX22 870-940, G921D)
# Sequence: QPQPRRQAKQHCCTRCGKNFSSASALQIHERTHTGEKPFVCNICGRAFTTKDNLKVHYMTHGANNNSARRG
# method-notes: HT-SELEX; high values mean tight binding
# condition-description: protein: recombinant; vector His6-GST; dsDNA, one strand shown
measure: binding signal (fold-change vs cycle 0)
Write the number in fold-change vs cycle 0 without appending the unit.

// worked examples, binding signal included
{"residues": "AGGCGA", "target": "SALL4 ZFC4 G921D (HT-SELEX) (Mus musculus, UniProt Q8BX22 870-940, G921D)", "value-observed": 0.438}
{"residues": "ATATGA", "target": "SALL4 ZFC4 G921D (HT-SELEX) (Mus musculus, UniProt Q8BX22 870-940, G921D)", "value-observed": 1.85}
{"residues": "GTCACA", "target": "SALL4 ZFC4 G921D (HT-SELEX) (Mus musculus, UniProt Q8BX22 870-940, G921D)", "value-observed": 0.861}
{"residues": "CGGAGA", "target": "SALL4 ZFC4 G921D (HT-SELEX) (Mus musculus, UniProt Q8BX22 870-940, G921D)", "value-observed": 0.543}
{"residues": "GACCTA", "target": "SALL4 ZFC4 G921D (HT-SELEX) (Mus musculus, UniProt Q8BX22 870-940, G921D)", "value-observed": 0.926}
{"residues": "ACCGCG", "target": "SALL4 ZFC4 G921D (HT-SELEX) (Mus musculus, UniProt Q8BX22 870-940, G921D)", "value-observed": 0.205}
{"residues": "CCTCGC", "target": "SALL4 ZFC4 G921D (HT-SELEX) (Mus musculus, UniProt Q8BX22 870-940, G921D)", "value-observed": 0.295}
{"residues": "AATGGG", "target": "SALL4 ZFC4 G921D (HT-SELEX) (Mus musculus, UniProt Q8BX22 870-940, G921D)", "value-observed": 0.883}

IN: I'd like to know its binding signal. The sequence in question is CAAAAA
OUT: 1.35

IN: I'd like to know its binding signal. The sequence in question is AGTTAC
OUT: 1.49

====

# target: SALL4 ZFC4 WT (HT-SELEX) (Mus musculus, UniProt Q8BX22 870-940)
# Sequence: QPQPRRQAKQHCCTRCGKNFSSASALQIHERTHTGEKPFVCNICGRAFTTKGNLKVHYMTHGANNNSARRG
# method-notes: HT-SELEX; high values mean tight binding
# condition-description: protein: recombinant; vector His6-GST; dsDNA, one strand shown
I'd appreciate it if you marked entries condition met when binding signal is lower than 1 fold-change vs cycle 0 and condition not met when it is not.

Record excerpt, results attached:
{"residues": "CATTAC", "target": "SALL4 ZFC4 WT (HT-SELEX) (Mus musculus, UniProt Q8BX22 870-940)", "label": "condition not met"}
{"residues": "ACAGAT", "target": "SALL4 ZFC4 WT (HT-SELEX) (Mus musculus, UniProt Q8BX22 870-940)", "label": "condition not met"}
{"residues": "AATCTA", "target": "SALL4 ZFC4 WT (HT-SELEX) (Mus musculus, UniProt Q8BX22 870-940)", "label": "condition not met"}
{"residues": "AAATAC", "target": "SALL4 ZFC4 WT (HT-SELEX) (Mus musculus, UniProt Q8BX22 870-940)", "label": "condition not met"}
{"residues": "AATAGG", "target": "SALL4 ZFC4 WT (HT-SELEX) (Mus musculus, UniProt Q8BX22 870-940)", "label": "condition not met"}

IN: Strictly below 1 fold-change vs cycle 0: is that where binding signal of AGCAGA sits?
OUT: condition met

IN: Strictly below 1 fold-change vs cycle 0: is that where binding signal of GTGATA sits?
OUT: condition not met

IN: Strictly below 1 fold-change vs cycle 0: is that where binding signal of CATGGA sits?
OUT: condition met

IN: Strictly below 1 fold-change vs cycle 0: is that where binding signal of CACATA sits?
OUT: condition not met

IN: Strictly below 1 fold-change vs cycle 0: is that where binding signal of AAGGAC sits?
OUT: condition met
